Where do these numbers come from? They come from patent US20240247080A1.

- SYSTEM_UNDER_TEST: hGLP1R (Homo sapiens, UniProt P43220)
- Construct: expressed in transfected cells; host or cells: HEK-293 cells carrying a CRE-luciferase reporter gene
- Sequence (P43220 24-463): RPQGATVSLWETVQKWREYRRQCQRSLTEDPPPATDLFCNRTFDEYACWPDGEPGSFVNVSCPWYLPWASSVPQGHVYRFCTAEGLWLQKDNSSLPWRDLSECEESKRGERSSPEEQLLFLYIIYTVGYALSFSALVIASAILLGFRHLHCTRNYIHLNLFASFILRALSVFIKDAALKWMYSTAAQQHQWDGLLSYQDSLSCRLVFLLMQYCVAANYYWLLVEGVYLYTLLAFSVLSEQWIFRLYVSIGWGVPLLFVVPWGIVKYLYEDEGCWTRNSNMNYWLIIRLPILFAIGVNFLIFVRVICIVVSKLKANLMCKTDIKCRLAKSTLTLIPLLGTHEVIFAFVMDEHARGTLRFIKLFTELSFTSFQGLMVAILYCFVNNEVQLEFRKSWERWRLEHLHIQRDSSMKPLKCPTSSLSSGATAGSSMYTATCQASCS
- TEST_DESCRIPTION: hGLP1R CreLuc reporter gene assay in 0.5% and 100% plasma
- Assay type: cell-based
- TEST_CONTEXT: CreLuc reporter gene assay, 100% human plasma; read-out: hGLP1R 100% hP
Starred links: 1 amine or outer side, 2 acyl side, 3 side chain; linkers in the order of their positions; H or OH if unused. Non-standard residues stand in square brackets, D forms with d. Groups on a side chain read outwards from the residue. *: point of attachment. C20 diacid = O=C(O)CCCCCCCCCCCCCCCCCCC(=O)*; C18 diacid = O=C(O)CCCCCCCCCCCCCCCCC(=O)*; γGlu = O=C(O)[C@H](CCC(=O)[*:2])N[*:1]; AEEA = NCCOCCOCC(=O)O; Aib = CC(C)(N)C(=O)O
# note: exactly 7 nM is not below, so it is rule not met; use rule met for EC50 strictly under it

Example cases with answers are listed next.
SUBSTANCE	LABEL_CLASS
H-Y[Aib]EGTFTSDYSI[Aib]LEKQAQ[Aib]AFVQWLIK([γGlu-γGlu-γGlu-γGlu-γGlu-C20 diacid])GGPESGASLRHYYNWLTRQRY-NH2 [Compound 29]	rule met
H-Y[Aib]EGTFTSDYSI[Aib]LEKQAQ[Aib]AFVEWLIK([γGlu-γGlu-γGlu-γGlu-γGlu-C18 diacid])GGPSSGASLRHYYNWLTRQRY-NH2 [Compound 253]	rule met
H-Y[Aib]EGTFTSDYSI[Aib]LEKQAQ[Aib]EFVEWLIK([AEEA-AEEA-γGlu-γGlu-γGlu-γGlu-C18 diacid])GGPSSPASLRHYYNWLTRQRY-NH2 [Compound 56]	rule not met
H-Y[Aib]EGTFTSDYSI[Aib]LEKQAQ[Aib]AFVQWLIK([Glu-Glu-Glu-Glu-C18 diacid])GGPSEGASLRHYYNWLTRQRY-NH2 [Compound 281]	rule met

Shift focus to the following entry.
Is 7 nM strictly greater than the substance's reported EC50? substance: H-Y[Aib]EGTFTSDYSI[Aib]LEKQAQ[Aib]EFVQWLIK([γGlu-γGlu-γGlu-γGlu-C20 diacid])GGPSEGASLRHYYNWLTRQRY-NH2 [Compound 194]
rule not met
